- Assay info: Dose proportionality (linearity) test by power model for C max and AUC0-last
- Condition description: Cmax; linear when 90% CI of β included 1, CIlower ≥0.8, and CIupper ≤1.25
Assay metric: Dose proportionality test using power model, Inference

>>> value_reported("COc1ccc(-c2oc3c(OC)c(OC)c(OC)c(OC)c3c(=O)c2OC)cc1OC")
"Nonlinear"
>>> value_reported("COc1ccc(-c2cc(=O)c3c(OC)c(OC)c(OC)c(OC)c3o2)cc1OC")
"Nonlinear"
>>> value_reported("C=C(CC[C@@H](C(=O)O)[C@H]1[C@H](O)C[C@@]2(C)C3=C(CC[C@]12C)[C@@]1(C)CC[C@H](OC(C)=O)C(C)(C)[C@@H]1CC3)C(C)C")
"Nonlinear"
>>> value_reported("O=C1C[C@@H](c2ccc(O)cc2)Oc2cc(O)cc(O)c21")
"Nonlinear"

----------
Quick reference for Stability in gastric pH solution, Quantitative value among some compounds
- Assay info: Stability of ingredients in gastric pH solution (pH 1.2, 37°C)
- Format: physicochemical
- Condition description: rikkunshito in acidic solution (pH 1.2) at 37°C, 1 h
Assay metric: Stability in gastric pH solution, Quantitative value (ng/mL)

>>> value_reported("C=C(CC[C@@H](C(=O)O)[C@H]1[C@H](O)C[C@@]2(C)C3=C(CC[C@]12C)[C@@]1(C)CC[C@H](OC(C)=O)C(C)(C)[C@@H]1CC3)C(C)C")
46.5
>>> value_reported("CNCC(O)c1ccc(O)cc1 (stereo not shown) [Synephrine]")
3180
>>> value_reported("CC(C)=CCC[C@](C)(O)[C@H]1CC[C@]2(C)[C@@H]1[C@H](O)C[C@@H]1[C@@]3(C)CC[C@H](O)C(C)(C)[C@@H]3[C@@H](O[C@@H]3O[C@H](CO)[C@@H](O)[C@H](O)[C@H]3O[C@@H]3O[C@H](CO)[C@@H](O)[C@H](O)[C@H]3O)C[C@]12C [Ginsenoside Rf]")
159
>>> value_reported("C/C=C/C#CC#C/C=C/c1ccco1")
9.72
>>> value_reported("CCCCCCC/C=C/C(=O)CCc1ccc(O)c(OC)c1 [[8]-Shogaol, [8]-Shogaol]")
1.89
>>> value_reported("CC1(C)CC[C@]2(C(=O)O)CC[C@]3(C)C(=CC[C@@H]4[C@@]5(C)CC[C@H](O)C(C)(C)[C@@H]5CC[C@]43C)[C@@H]2C1")
3.54
>>> value_reported("COc1ccc([C@@H]2CC(=O)c3c(O)cc(O[C@@H]4O[C@H](CO[C@@H]5O[C@@H](C)[C@H](O)[C@@H](O)[C@H]5O)[C@@H](O)[C@H](O)[C@H]4O)cc3O2)cc1O")
3130
>>> value_reported("CC(C)=CCC[C@](C)(O)[C@H]1CC[C@]2(C)[C@@H]1[C@H](O)C[C@@H]1[C@@]3(C)CC[C@H](O)C(C)(C)[C@@H]3[C@@H](O[C@@H]3O[C@H](CO)[C@@H](O)[C@H](O)[C@H]3O[C@@H]3O[C@@H](C)[C@H](O)[C@@H](O)[C@H]3O)C[C@]12C [ginsenoside Rg2, Ginsenoside Rg2]")
157
>>> value_reported("CCCCC/C=C/C(=O)CCc1ccc(O)c(OC)c1 [[6]-Shogaol, [6]-Shogaol]")
18.5
>>> value_reported("CCCCCCCCC[C@H](O)CC(=O)CCc1ccc(O)c(OC)c1 [[10]-gingerol, [10]-Gingerol]")
7.53

----------
Quick reference for Plasma concentration, 1 h among some molecules
- Assay info: Exploratory trial: plasma concentration of rikkunshito ingredients after single oral rikkunshito 7.5 g
- Format: in vivo
- Condition description: 1 h after single oral rikkunshito 7.5 g; mean ± S.D., n = 4
Assay metric: Plasma concentration, 1 h (ng/mL)

>>> value_reported("COc1ccc(-c2cc(=O)c3c(OC)c(OC)c(OC)c(OC)c3o2)cc1OC")
0.0282
>>> value_reported("C[C@@H]1O[C@@H](O[C@H]2[C@H](Oc3cc(O)c4c(c3)O[C@H](c3ccc(O)cc3)CC4=O)O[C@H](CO)[C@@H](O)[C@@H]2O)[C@H](O)[C@H](O)[C@H]1O")
0.059
>>> value_reported("C=C(CC[C@@H](C(=O)O)[C@H]1[C@H](O)C[C@@]2(C)C3=C(CC[C@]12C)[C@@]1(C)CC[C@H](OC(C)=O)C(C)(C)[C@@H]1CC3)C(C)C")
0.127
>>> value_reported("O=C1C[C@@H](c2ccc(O[C@@H]3O[C@H](CO)[C@@H](O)[C@H](O)[C@H]3O)cc2)Oc2cc(O)ccc21")
0.841

----------
- Assay info: Exploratory trial: plasma concentration of rikkunshito ingredients after single oral rikkunshito 7.5 g
- Assay type: in vivo
- Condition description: 0 h (preadministration); single oral rikkunshito 7.5 g; mean ± S.D., n = 4
Assay metric: Plasma concentration, 0 h

>>> value_reported("CNCC(O)c1ccc(O)cc1 (stereo not drawn) [Synephrine]")
"BQL"
>>> value_reported("CC(C)=CCC[C@](C)(O[C@@H]1O[C@H](CO)[C@@H](O)[C@H](O)[C@H]1O)[C@H]1CC[C@]2(C)[C@@H]1[C@H](O)C[C@@H]1[C@@]3(C)CC[C@H](O[C@@H]4O[C@H](CO)[C@@H](O)[C@H](O)[C@H]4O[C@@H]4O[C@H](CO)[C@@H](O)[C@H](O)[C@H]4O)C(C)(C)[C@@H]3CC[C@]12C [Ginsenoside Rd]")
"BQL"
>>> value_reported("O=C(/C=C/c1ccc(O)cc1)c1ccc(O)cc1O")
"BQL"

----------
- Assay info: Exploratory trial: plasma concentration of rikkunshito ingredients after single oral rikkunshito 7.5 g
- Type: in vivo
- Condition description: human, plasma; 4 h after single oral rikkunshito 7.5 g; mean ± S.D., n = 4; read-out: Plasma concentration, 4 h
- Description: A random sequence was generated using a computer. The safety endpoint was evaluated in all volunteers. […] For quantification of synephrine, 5 µL of standard solution or methanol was added to 100 µL plasma or urine samples followed by mixing. […] For quantification of 30 ingredients other than atractylodin and synephrine, 25 µL of standard solution or methanol was added to 500 µL plasma or urine samples followed by mixing. […]
Assay metric: concentration at 4 h (ng/mL)

>>> value_reported("COc1ccc(-c2oc3c(OC)c(OC)c(OC)c(OC)c3c(=O)c2OC)cc1OC")
0.0569

----------
Quick reference for log10(AUC(0-t)) among some compounds
- Assay info: Randomized crossover quantitative trial: plasma pharmacokinetics of nine ingredients after rikkunshito 2.5, 5.0 or 7.5 g
- Condition description: human, plasma, po, 7.5 g, AUC0-last, rikkunshito 7.5 g single oral, n = 19; geometric mean (95% CI)
Assay metric: log10(AUC(0-t)) (log10 of the value in ng·h/mL)

>>> value_reported("CC1(C)[C@@H](O)CC[C@]2(C)[C@H]3C(=O)C=C4[C@@H]5C[C@@](C)(C(=O)O)CC[C@]5(C)CC[C@@]4(C)[C@]3(C)CC[C@@H]12")
2.92
>>> value_reported("O=C(O)/C=C/C#CC#C/C=C/c1ccco1")
1.10
>>> value_reported("COc1ccc(-c2oc3c(OC)c(OC)c(OC)c(OC)c3c(=O)c2OC)cc1OC")
-0.65
>>> value_reported("O=C1C[C@@H](c2ccc(O)cc2)Oc2cc(O)cc(O)c21")
0.67
>>> value_reported("O=C(/C=C/c1ccc(O)cc1)c1ccc(O)cc1O")
-0.91

----------
- Assay info: clinical
- Condition description: human, in vivo, po, C max, rikkunshito 5.0 g single oral, n = 19; geometric mean (95% CI)
Assay metric: Cmax (ng/mL)

>>> value_reported("C=C(CC[C@@H](C(=O)O)[C@H]1[C@H](O)C[C@@]2(C)C3=C(CC[C@]12C)[C@@]1(C)CC[C@H](OC(C)=O)C(C)(C)[C@@H]1CC3)C(C)C [Pachymic acid]")
0.0612

----------
- Assay info: Stability of ingredients in gastric pH solution (pH 1.2, 37°C)
- Type: physicochemical
- Condition description: 2 h, pH 1.2
Assay metric: Stability in gastric pH solution, Quantitative value

>>> value_reported("CC(C)=CCC[C@](C)(O[C@@H]1O[C@H](CO)[C@@H](O)[C@H](O)[C@H]1O)[C@H]1CC[C@]2(C)[C@@H]1[C@H](O)C[C@@H]1[C@@]3(C)CC[C@H](O)C(C)(C)[C@@H]3[C@@H](O[C@@H]3O[C@H](CO)[C@@H](O)[C@H](O)[C@H]3O)C[C@]12C [Ginsenoside Rg1]")
"41.6 ng/mL"
>>> value_reported("C[C@@H]1O[C@@H](OC[C@H]2O[C@@H](Oc3cc(O)c4c(c3)O[C@H](c3ccc(O)cc3)CC4=O)[C@H](O)[C@@H](O)[C@@H]2O)[C@H](O)[C@H](O)[C@H]1O")
"1690 ng/mL"
>>> value_reported("COc1ccc(-c2cc(=O)c3c(OC)c(OC)c(OC)c(OC)c3o2)cc1")
"5.95 ng/mL"
>>> value_reported("CC(C)=CCC[C@](C)(O[C@@H]1O[C@H](CO)[C@@H](O)[C@H](O)[C@H]1O)[C@H]1CC[C@]2(C)[C@@H]1[C@H](O)C[C@@H]1[C@@]3(C)CC[C@H](O[C@@H]4O[C@H](CO)[C@@H](O)[C@H](O)[C@H]4O[C@@H]4O[C@H](CO)[C@@H](O)[C@H](O)[C@H]4O)C(C)(C)[C@@H]3CC[C@]12C [Ginsenoside Rd]")
"20.3 ng/mL"
>>> value_reported("C[C@@H]1O[C@@H](O[C@H]2[C@H](Oc3cc(O)c4c(c3)O[C@H](c3ccc(O)cc3)CC4=O)O[C@H](CO)[C@@H](O)[C@@H]2O)[C@H](O)[C@H](O)[C@H]1O")
"986 ng/mL"
>>> value_reported("O=C1C[C@@H](c2ccc(O)cc2)Oc2cc(O)cc(O)c21")
"1990 ng/mL"
>>> value_reported("CC(C)=CCC[C@](C)(O[C@@H]1O[C@H](CO[C@@H]2O[C@H](CO)[C@@H](O)[C@H](O)[C@H]2O)[C@@H](O)[C@H](O)[C@H]1O)[C@H]1CC[C@]2(C)[C@@H]1[C@H](O)C[C@@H]1[C@@]3(C)CC[C@H](O[C@@H]4O[C@H](CO)[C@@H](O)[C@H](O)[C@H]4O[C@@H]4O[C@H](CO)[C@@H](O)[C@H](O)[C@H]4O)C(C)(C)[C@@H]3CC[C@]12C [Ginsenoside Rb1]")
"86.4 ng/mL"
>>> value_reported("O=C1C[C@@H](c2ccc(O[C@@H]3O[C@H](CO)[C@@H](O)[C@H](O)[C@H]3O)cc2)Oc2cc(O)ccc21")
"1720 ng/mL"
>>> value_reported("CCCCC[C@H](O)CC(=O)CCc1ccc(O)c(OC)c1 [[6]-Gingerol, [6]-Gingerol]")
"149 ng/mL"
>>> value_reported("COc1c(CC=C(C)C)c(O)cc2oc(=O)c(-c3ccc(O)cc3O)cc12")
"5.09 ng/mL"
>>> value_reported("COc1ccc(-c2oc3c(OC)c(OC)c(OC)c(OC)c3c(=O)c2OC)cc1OC")
"28.7 ng/mL"
>>> value_reported("CC(C)=CCC[C@](C)(O[C@@H]1O[C@H](CO[C@@H]2O[C@@H](CO)[C@H](O)[C@H]2O)[C@@H](O)[C@H](O)[C@H]1O)[C@H]1CC[C@]2(C)[C@@H]1[C@H](O)C[C@@H]1[C@@]3(C)CC[C@H](O[C@@H]4O[C@H](CO)[C@@H](O)[C@H](O)[C@H]4O[C@@H]4O[C@H](CO)[C@@H](O)[C@H](O)[C@H]4O)C(C)(C)[C@@H]3CC[C@]12C [Ginsenoside Rc]")
"39.3 ng/mL"
>>> value_reported("O=C(/C=C/c1ccc(O)cc1)c1ccc(O)cc1O")
"15.2 ng/mL"
